- System: EKVX NSCLC
- MEASUREMENT PROTOCOL: NCI-60 one-dose screen, 48 h (100 = growth as untreated, 0 = no growth, -100 = all killed)
- ASSAY CONDITIONS: 10 µM
About 83,000 compounds went through this panel and 20% of them were active in at least one assay; those are over-represented in the sample as a whole.
growth: recorded values
Write down the numeric answer in % and omit the unit.

Some compounds with known growth results, for comparison:
# COMPOUND, VALUE UNITS, growth
data = [
    ("O=C(Nc1ccc(Cl)cn1)C1(c2ccccc2)CCCCC1", "%", 96),
    ("COc1cc(-c2nn(-c3ccc(NC(=O)c4ccc(Cl)c(Cl)c4)cc3)cc2-c2ccncc2)ccc1Cl", "%", 73),
]

Problem: Request the reported growth associated with `O=C(Nc1ccc(-n2cc(-c3ccncc3)c(-c3ccc(Cl)c(O)c3)n2)cc1)Nc1ccc(Cl)c(C(F)(F)F)c1`
Result: 1.43

Problem: Request the reported growth associated with `COC(=O)c1cc(O)c2cc3c(cc2c1-c1cc(OC)c(OC)c(OC)c1)OCO3`
Result: 55.8

Problem: Request the reported growth associated with `COc1ccc(Cn2cc3c(c2-c2ccccc2)CCc2cnoc2-3)cc1OC`
Result: 46.5

Problem: Request the reported growth associated with `Clc1ccc(N/N=C/c2ccccn2)nc1`
Result: 5.55

Problem: Request the reported growth associated with `CCCCCSc1ccc2nc(NC(=O)OCC)sc2c1`
Result: 30.3

Problem: Request the reported growth associated with `Nc1ccc(S(=O)(=O)Nc2cc(F)cc(F)c2)cc1`
Result: 80.4

Problem: Request the reported growth associated with COc1cccc(CNC(=O)c2cccc(C3CC(=O)c4c(cc(OC)c(OC)c4OC)O3)c2)c1 (stereo unspecified)
Result: 72.4

Problem: Request the reported growth associated with `CC1C(=O)CCCC1=O`
Result: 110

Problem: Request the reported growth associated with `COc1ccc(C2=C/C(=C\c3ccc(Cl)cc3)C(=O)NN2C(=S)NN)cc1`
Result: 94.2

Problem: Request the reported growth associated with COc1ccc(C(O)(c2ccccc2)C(C(=O)O)c2ccccc2)cc1 (stereo unspecified)
Result: 111

Problem: Request the reported growth associated with `COc1ccc(CN2C(=O)/C(=C\C(=O)c3ccc(OCCN4CCCCC4)cc3)c3ccccc32)cc1`
Result: 87.6

Problem: Request the reported growth associated with `CCNc1nnc(COc2ccc(CNC(=O)CCCC/C=C/C(C)C)cc2OC)o1`
Result: 96.7

Problem: Request the reported growth associated with `COc1ccc(-c2nc(SCC(C)C)nc(Nc3ccccc3)c2C#N)cc1`
Result: 85

Problem: Request the reported growth associated with `COC(=O)c1ccc2[nH]c(O)c(C(=Nc3ccc(N(C)C(=O)CN4CCN(C)CC4)cc3)c3ccc(C)cc3)c2c1`
Result: 23

Problem: Request the reported growth associated with `Oc1ccc(CN(Cc2ccc(C(F)(F)F)cc2)Cc2ccc(O)c3ncccc23)c2cccnc12`
Result: 19

Problem: Request the reported growth associated with `O=Nc1c(-c2c(O)[nH]c3cc(Br)ccc23)[nH]c2ccccc12`
Result: 29.8

====

- Tested on: SR leukemia
- MEASUREMENT PROTOCOL: NCI-60 one-dose screen, 48 h
- ASSAY CONDITIONS: 10 µM unless noted
Compounds without any hit were thinned out: in the full panel of roughly 83,000, 20% have a hit. Activity calls are given as the source filed them. Rule for the calls: active = growth percent below 10; inactive = the rest.
Answer with one of the outcomes active, inactive

# COMPOUND, TGT, CAT
measured = [
    ("CCn1cnc(C[C@H](NC(=O)[C@@H](NC(=O)Nc2cc(C(F)(F)F)cc(C(F)(F)F)c2)C(C)C)C(=O)OC)c1", "SR leukemia", "active"),
    ("CC(=O)N1CCN(CCNC(=O)n2cc(-c3ccncc3)c(-c3ccc(O)c(Cl)c3)n2)CC1", "SR leukemia", "inactive"),
    ("O=C(Nc1ccc(-n2cc(-c3ccncc3)c(-c3ccc(Cl)c(O)c3)n2)cc1)c1ccc(Cl)c(Cl)c1", "SR leukemia", "active"),
    ("COc1ccc(-c2nnc(SCC(=O)Nc3ccc(C(=O)/C=C/c4cc(OC)c(OC)c(OC)c4)cc3)n2-c2ccccc2)cc1OC", "SR leukemia", "inactive"),
]

Problem: In this assay, the call recorded for Cc1ccc2c(O)c(O)cc(NC(C)CCCN)c2n1 (stereo not given) was what?
Result: inactive

Problem: In this assay, the call recorded for `C/C(=N\Nc1ccc(Cl)cn1)c1ccc2ccccc2n1` was what?
Result: active

Problem: In this assay, the call recorded for CCC1(CC)C(OC)NC(Br)=C(C#N)C1(C#N)C(N)=O (stereo not given) was what?
Result: inactive

Problem: In this assay, the call recorded for `CCCCS(=O)(=O)c1cc(Nc2ccc(O)c3c2C(=O)c2ccccc2C3=O)ccc1C` was what?
Result: inactive

Problem: In this assay, the call recorded for `O=C1CCNC1` was what?
Result: inactive

Problem: In this assay, the call recorded for `CC[n+]1c(C)ccc2cc(C)ccc21` was what?
Result: inactive

====

growth: recorded values
- System: NCI-H322M lung
- MEASUREMENT PROTOCOL: NCI-60 one-dose screen, 48 h (100 = growth as untreated, 0 = no growth, -100 = all killed)
- ASSAY CONDITIONS: 10 µM unless noted
Compounds without any hit were thinned out: in the full panel of roughly 83,000, 20% have a hit.
Write down the numeric answer in % and omit the unit.

Some compounds with known growth results, for comparison:
# COMPOUND, growth, %
rows = [
    ("COc1cc([C@@H]2c3cc4c(cc3[C@H](O)[C@H]3COC[C@@H]23)OCO4)cc(OC)c1OC", 104),
    ("O=C(Nc1cccc(Cn2c(=O)[nH]c3ccc(Oc4ncccn4)cc3c2=O)c1)c1ccc(Cl)cc1", 61.5),
    ("CNCCCNCCCCNCCCN1C(=O)c2ccc3c4c(ccc(c24)C1=O)C(=O)N(CCCNCc1ccccc1OC)C3=O", 22.8),
    ("Cn1cnc2nc[nH]c2c1=S", 101),
    ("CC(=O)OCC(=O)[C@@]1(O)[C@H](C)C[C@H]2[C@@H]3C=C(C)C4=Cc5c(cnn5-c5ccc(F)cc5)C[C@]4(C)[C@H]3[C@@H](O)C[C@@]21C", 49.9),
]

Problem: Request the reported growth associated with `COC(=O)[C@@H]1[C@H](O)[C@H](C)[C@H](O)[C@H](C)/C=C\C=C(C)C(=O)Nc2c(C)c(OC(C)=O)c3c(c2O)C(=O)C(C)=C2OCOC(=C23)C(C)=C[C@@](C)(O)[C@H](O)[C@@H](C)[C@H]1OC(C)=O`
Result: 121

Problem: Request the reported growth associated with `c1cc(C2CCCCC2)ccc1OCCCCCCN1CCNCC1`
Result: 82

Problem: Request the reported growth associated with CCC1(CC)C(OC)NC(Br)=C(C#N)C1(C#N)C(N)=O (configuration not stated)
Result: 118

Problem: Request the reported growth associated with `CCCCCCN(CCCCCC)CCC(=O)Nc1ccc(S(=O)(=O)c2ccc(NC(=O)CCN(CCCCCC)CCCCCC)cc2)cc1`
Result: 75.3

Problem: Request the reported growth associated with `COc1cc2c(cc1OC)C(Cc1cc(OC)c(OC)cc1[N+](=O)[O-])=NCC2`
Result: 94.9

====

- Test system: DU-145 prostate
- MEASUREMENT PROTOCOL: NCI-60 one-dose screen, 48 h (100 = growth as untreated, 0 = no growth, -100 = all killed)
- ASSAY CONDITIONS: 10 µM unless noted
This is part of a sample that, as a whole, favours compounds with a hit. Of some 83,000 tested, about 20% had one in any assay. Activity calls are given as the source filed them. The calls were made as follows: active = growth percent below 10; inactive = the rest.
growth: recorded values

Some compounds with known growth results, for comparison:
# COMPOUND, growth
data = [
    ("O=C1C(Cl)=C(Nc2ccc(Nc3ccccc3)c(NC3=C(Cl)C(=O)c4ccccc4C3=O)c2)C(=O)c2ccccc21", "104% (inactive)"),
    ("CC(=O)c1cc(Nc2cc(C)nc(N)n2)cc(C(C)=O)c1", "91.3% (inactive)"),
    ("O=C(/C=C\\c1ccccc1Cl)c1ccccc1", "101% (inactive)"),
    ("O=C(Nc1ccc(-n2cc(-c3ccncc3)c(-c3ccc(Cl)c(O)c3)n2)cc1)c1ccc(Cl)c(Cl)c1", "61.8% (inactive)"),
    ("CC(=O)N1CCN(CCNC(=O)n2cc(-c3ccncc3)c(-c3cc(O)cc(Cl)c3)n2)CC1", "89.5% (inactive)"),
]

Problem: Request the reported growth associated with `CC(C)OC(=O)Nn1cnc2ccccc21`
Result: 103% (inactive)

Problem: Request the reported growth associated with COC(=O)C(C(=O)OC)C(Br)C(Br)C(Br)c1ccccc1 (stereo not drawn)
Result: 89.5% (inactive)

Problem: Request the reported growth associated with `O=C1/C(=N\c2cc(=O)[nH]n2S(=O)(=O)c2ccccc2)Nc2ccccc21`
Result: 108% (inactive)
